# experimental details: Volume of distribution at steady state in Beagle dog at 1 mg/kg, iv
# Assay type: ADME, organism-based, Canis lupus familiaris
# Parameters: dose 1 mg/kg, route intravenous
# setup conditions: in vivo, read-out: Vdss
measured attribute: Vd (L/kg)
Report the figure in L/kg without appending any unit label.

Give a short answer stating reported Vd for `Cc1c(-c2noc(-c3ccc(OC(C)C)c(C#N)c3)n2)ccc2c1CCN(C(CO)CO)C2` .
7

====

# experimental details: Blood clearance in CD rat at 1 mg/kg, iv
# Assay type: ADME, organism-based
# Parameters: dose 1 mg/kg, route intravenous
Threshold rule: clearance greater than or equal to 20 mL/min/kg is yes (1); below that, no (0).

# example entries with known answers
Cc1c(-c2noc(-c3ccc(OC(C)C)c(C#N)c3)n2)ccc2c1CCN(CC(=O)N[C@@H](C)CO)C2 yes (1)
CC(C)Oc1ccc(-c2nc(-c3ccc4c(c3)CCN(C(CO)CO)C4)no2)cc1C#N yes (1)
CC(C)Oc1ccc(-c2nc(-c3ccc4c(c3)CCN(C(CO)CO)CC4)no2)cc1C#N yes (1)
CC(C)Oc1ccc(-c2nc(-c3cccc4c3OCCN(C(CO)CO)C4)no2)cc1C#N no (0)
Cc1c(-c2noc(-c3ccc(OC(C)C)c(C#N)c3)n2)ccc2c1CCN(C(CO)CO)C2 yes (1)

Item `Cc1c(-c2noc(-c3ccc(OC(C)C)c(C#N)c3)n2)cnc2c1CCN(C(CO)CO)C2` with clearance of 20 mL/min/kg or above?
yes (1)

====

# assayed target: UniProtKB P08684
# experimental details: Inhibition of CYP3A4 using vivid red as substrate
# Assay type: ADME
measured attribute: pIC50
# pIC50 = -log10(concentration in molar units)

Give a short answer stating reported pIC50 for `Cc1c(-c2noc(-c3ccc(OC(C)C)c(C#N)c3)n2)ccc2c1CCN(C(CO)CO)C2` .
4.82

====

# experimental details: Chromatographic hydrophobicity index, log D of the compound at pH 7.4
# Type: physicochemical
# setup conditions: buffer
Form field: chromatographic logD (one value per entry).
Please reply with the value in numeric form only.

Some compounds with recorded chromatographic logD:
Cc1c(-c2noc(-c3ccc(OC(C)C)c(C#N)c3)n2)cnc2c1CCN(C(CO)CO)C2 2
CC(C)Oc1ncc(-c2nc(-c3ccc4c(c3)CCNCC4)no2)cc1C#N 2.65
Cc1c(-c2noc(-c3ccc(OC(C)C)c(C#N)c3)n2)ccc2c1CCN(C(CO)CO)C2 2.64
CC(C)Oc1ccc(-c2nc(-c3ccc4c(c3)CCN(C(CO)CO)CC4)no2)cc1C#N 2.74
Cc1c(-c2noc(-c3ccc(OC(C)C)c(C#N)c3)n2)ccc2c1CCN(CC(=O)N[C@@H](C)CO)C2 3.04

Give a short answer stating reported chromatographic logD for `CC(C)Oc1ccc(-c2nc(-c3cccc4c3OCCN(C(CO)CO)C4)no2)cc1C#N` .
2.41

Give a short answer stating reported chromatographic logD for `CC(C)Oc1ccc(-c2nc(-c3ccc4c(c3)CCN(C(CO)CO)C4)no2)cc1C#N` .
2.49

====

# experimental details: Chromatographic hydrophobicity index, log D of the compound at pH 10.5
# Format: physicochemical
# setup conditions: buffer
Form field: chromatographic logD (one value per entry).

CC(C)Oc1ncc(-c2nc(-c3ccc4c(c3)CCNCC4)no2)cc1C#N 3.73

// next entry
Give a short answer stating reported chromatographic logD for `Cc1c(-c2noc(-c3ccc(OC(C)C)c(C#N)c3)n2)ccc2c1CCN(C(CO)CO)C2` .
2.99

====

Form field: pEC50 (one value per entry).
# assayed target: Sphingosine 1-phosphate receptor 3 (Homo sapiens)
# Sequence (Q99500 whole entry): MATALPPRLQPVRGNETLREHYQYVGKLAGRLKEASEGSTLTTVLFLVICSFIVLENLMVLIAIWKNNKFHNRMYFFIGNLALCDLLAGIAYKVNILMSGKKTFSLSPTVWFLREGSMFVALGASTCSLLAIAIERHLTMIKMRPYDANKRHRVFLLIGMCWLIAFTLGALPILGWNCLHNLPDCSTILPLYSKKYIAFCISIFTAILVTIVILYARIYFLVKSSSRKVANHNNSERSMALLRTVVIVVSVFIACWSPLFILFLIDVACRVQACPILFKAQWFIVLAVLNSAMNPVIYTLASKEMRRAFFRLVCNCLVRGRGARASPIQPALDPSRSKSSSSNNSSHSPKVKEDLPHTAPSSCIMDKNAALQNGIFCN
# experimental details: Agonist activity at human S1P3 receptor expressed in RBL cells assessed as [35S]GTPgammaS binding after 3 hrs by radiometric assay
pEC50: −log10 of the molar value.

Cc1c(-c2noc(-c3ccc(OC(C)C)c(C#N)c3)n2)ccc2c1CCN(C(CO)CO)C2 < 4.50
CC(C)Oc1ccc(-c2nc(-c3ccc4c(c3)CCN(C(CO)CO)C4)no2)cc1C#N 5.20
CC(C)Oc1ccc(-c2nc(-c3ccc4c(c3)CCN(C(CO)CO)CC4)no2)cc1C#N 4.80
Cc1c(-c2noc(-c3ccc(OC(C)C)c(C#N)c3)n2)ccc2c1CCN(CC(=O)N[C@@H](C)CO)C2 4.60
Cc1c(-c2noc(-c3ccc(OC(C)C)c(C#N)c3)n2)ccc2c1CCN(CCC(=O)O)C2 < 4.50
Cc1c(-c2noc(-c3ccc(OC(C)C)c(C#N)c3)n2)cnc2c1CCN(C(CO)CO)C2 < 4.00
CC(C)Oc1ccc(-c2nc(-c3cccc4c3OCCN(C(CO)CO)C4)no2)cc1C#N < 4.50

Give a short answer stating reported pEC50 for `CC(C)Oc1ncc(-c2nc(-c3ccc4c(c3)CCNCC4)no2)cc1C#N` .
< 4.50

====

# experimental details: Oral bioavailability in CD rat at 1 mg/kg
# Type: ADME, organism-based
# setup conditions: in vivo
measured attribute: bioavailability (%)
Report the figure in % without appending any unit label.

Give a short answer stating reported bioavailability for `Cc1c(-c2noc(-c3ccc(OC(C)C)c(C#N)c3)n2)ccc2c1CCN(C(CO)CO)C2` .
52

====

# assayed target: Cytochrome P450 3A4 (Homo sapiens)
# Sequence (P08684 whole entry): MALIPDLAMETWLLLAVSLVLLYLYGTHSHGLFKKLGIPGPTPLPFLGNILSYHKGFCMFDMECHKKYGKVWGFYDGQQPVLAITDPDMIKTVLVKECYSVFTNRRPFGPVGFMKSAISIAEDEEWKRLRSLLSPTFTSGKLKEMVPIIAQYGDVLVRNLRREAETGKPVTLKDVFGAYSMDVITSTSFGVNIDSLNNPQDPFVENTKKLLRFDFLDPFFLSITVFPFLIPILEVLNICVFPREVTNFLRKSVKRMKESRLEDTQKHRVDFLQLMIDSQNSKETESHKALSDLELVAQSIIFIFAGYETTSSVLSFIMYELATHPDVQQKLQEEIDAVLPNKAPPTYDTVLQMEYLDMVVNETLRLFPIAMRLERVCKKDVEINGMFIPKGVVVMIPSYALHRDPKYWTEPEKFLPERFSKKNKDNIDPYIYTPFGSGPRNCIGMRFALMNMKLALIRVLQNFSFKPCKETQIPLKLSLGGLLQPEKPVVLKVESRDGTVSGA
# experimental details: Inhibition of CYP3A4 using vivid green as substrate
# Format: ADME
measured attribute: pIC50
# pIC50 = -log10(concentration in molar units)

Give a short answer stating reported pIC50 for `Cc1c(-c2noc(-c3ccc(OC(C)C)c(C#N)c3)n2)ccc2c1CCN(C(CO)CO)C2` .
5.08

====

Form field: EC50 (one value per entry).
# assayed target: Sphingosine 1-phosphate receptor 4 (Homo sapiens, UniProt O95977)
# Sequence (O95977 whole entry): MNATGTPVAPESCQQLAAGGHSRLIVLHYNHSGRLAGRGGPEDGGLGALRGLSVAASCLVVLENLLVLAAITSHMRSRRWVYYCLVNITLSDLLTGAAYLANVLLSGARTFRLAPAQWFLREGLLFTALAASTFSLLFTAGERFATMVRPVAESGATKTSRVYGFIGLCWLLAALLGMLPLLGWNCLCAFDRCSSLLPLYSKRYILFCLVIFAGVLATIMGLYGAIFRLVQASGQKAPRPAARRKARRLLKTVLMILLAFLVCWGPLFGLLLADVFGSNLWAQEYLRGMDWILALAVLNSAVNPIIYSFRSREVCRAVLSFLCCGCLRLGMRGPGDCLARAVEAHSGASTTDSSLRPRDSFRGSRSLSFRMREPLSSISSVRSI
# experimental details: Agonist activity at human S1P4 expressed in CHO-K1 aequorin cells assessed as calcium accumulation of by luminescence assay in presence of cofactor coelenterazine

compound	EC50
CCCCCCCCc1ccc(CC[C@](N)(CO)COP(=O)(O)O)cc1 [FTY720-P]	200 nM

Give a short answer stating reported EC50 for `Cc1c(-c2noc(-c3ccc(OC(C)C)c(C#N)c3)n2)ccc2c1CCN(CCC(=O)O)C2` .
> 41700 nM

====

Form field: bioavailability (one value per entry).
# experimental details: Oral bioavailability in CD rat at 3 mg/kg
# Assay type: ADME, organism-based
# setup conditions: in vivo
Report the figure in % without appending any unit label.

Give a short answer stating reported bioavailability for `Cc1c(-c2noc(-c3ccc(OC(C)C)c(C#N)c3)n2)ccc2c1CCN(CC(=O)N[C@@H](C)CO)C2` .
38

Give a short answer stating reported bioavailability for `CC(C)Oc1ncc(-c2nc(-c3ccc4c(c3)CCNCC4)no2)cc1C#N` .
70

Give a short answer stating reported bioavailability for `Cc1c(-c2noc(-c3ccc(OC(C)C)c(C#N)c3)n2)ccc2c1CCN(C(CO)CO)C2` .
52

Give a short answer stating reported bioavailability for `Cc1c(-c2noc(-c3ccc(OC(C)C)c(C#N)c3)n2)cnc2c1CCN(C(CO)CO)C2` .
37

====

# assayed target: hERG (KCNH2) (Homo sapiens, UniProt Q12809)
# Sequence (Q12809 whole entry): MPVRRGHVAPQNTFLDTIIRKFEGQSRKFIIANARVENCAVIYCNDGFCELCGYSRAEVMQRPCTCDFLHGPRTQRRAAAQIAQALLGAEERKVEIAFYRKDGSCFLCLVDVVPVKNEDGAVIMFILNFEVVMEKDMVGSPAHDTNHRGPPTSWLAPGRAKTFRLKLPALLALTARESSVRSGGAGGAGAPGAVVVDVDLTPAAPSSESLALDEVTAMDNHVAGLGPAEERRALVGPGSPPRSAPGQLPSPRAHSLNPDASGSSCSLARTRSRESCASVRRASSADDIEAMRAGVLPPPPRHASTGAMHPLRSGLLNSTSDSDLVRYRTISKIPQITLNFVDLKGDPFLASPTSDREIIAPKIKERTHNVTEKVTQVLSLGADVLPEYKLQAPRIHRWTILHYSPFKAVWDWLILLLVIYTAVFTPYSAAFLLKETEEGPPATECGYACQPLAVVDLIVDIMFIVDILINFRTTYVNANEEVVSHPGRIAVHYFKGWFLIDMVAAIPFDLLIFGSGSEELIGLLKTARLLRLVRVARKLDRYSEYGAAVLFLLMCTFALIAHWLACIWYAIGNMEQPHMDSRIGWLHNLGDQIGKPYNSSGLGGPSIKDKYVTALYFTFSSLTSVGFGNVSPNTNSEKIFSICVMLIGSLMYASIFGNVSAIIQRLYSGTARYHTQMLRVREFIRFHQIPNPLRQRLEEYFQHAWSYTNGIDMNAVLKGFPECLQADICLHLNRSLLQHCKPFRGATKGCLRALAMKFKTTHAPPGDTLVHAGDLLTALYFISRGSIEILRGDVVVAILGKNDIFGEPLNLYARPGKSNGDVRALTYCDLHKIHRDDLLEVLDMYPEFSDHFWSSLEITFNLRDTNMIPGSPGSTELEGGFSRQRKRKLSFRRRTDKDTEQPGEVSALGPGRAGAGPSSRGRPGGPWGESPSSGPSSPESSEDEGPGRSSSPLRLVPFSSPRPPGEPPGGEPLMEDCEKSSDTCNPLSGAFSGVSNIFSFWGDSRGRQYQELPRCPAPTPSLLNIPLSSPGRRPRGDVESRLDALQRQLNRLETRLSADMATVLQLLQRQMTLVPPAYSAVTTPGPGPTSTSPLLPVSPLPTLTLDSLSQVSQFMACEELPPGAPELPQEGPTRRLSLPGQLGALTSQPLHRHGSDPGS
# experimental details: Inhibition of human ERG at 30 uM
measured attribute: inhibition at 30 µM (%)
Report the figure in % without appending any unit label.

Some compounds with recorded inhibition at 30 µM:
Cc1c(-c2noc(-c3ccc(OC(C)C)c(C#N)c3)n2)ccc2c1CCN(C(CO)CO)C2 58
Cc1c(-c2noc(-c3ccc(OC(C)C)c(C#N)c3)n2)ccc2c1CCN(CC(=O)N[C@@H](C)CO)C2 43

Give a short answer stating reported inhibition at 30 µM for `CC(C)Oc1ccc(-c2nc(-c3ccc4c(c3)CCN(C(CO)CO)CC4)no2)cc1C#N` .
59

====

# experimental details: Chromatographic hydrophobicity index, log D of the compound at pH 2.0
# Assay type: physicochemical
# setup conditions: buffer
measured attribute: chromatographic logD
Please reply with the value in numeric form only.

CC(C)Oc1ncc(-c2nc(-c3ccc4c(c3)CCNCC4)no2)cc1C#N 1.34

// next entry
Give a short answer stating reported chromatographic logD for `Cc1c(-c2noc(-c3ccc(OC(C)C)c(C#N)c3)n2)ccc2c1CCN(C(CO)CO)C2` .
0.98

====

# experimental details: Ratio of drug level in brain to blood in CD rat at 0.8 mg/kg/hr, iv measured up to 7 hrs
# Type: ADME, organism-based
# Set-up: route intravenous
measured attribute: Kp at 7 h
Please reply with the value in numeric form only.

Give a short answer stating reported Kp at 7 h for `Cc1c(-c2noc(-c3ccc(OC(C)C)c(C#N)c3)n2)ccc2c1CCN(C(CO)CO)C2` .
1.87

====

# experimental details: Blood clearance in Beagle dog at 1 mg/kg, iv
# Type: ADME, organism-based, Canis lupus familiaris
# Parameters: dose 1 mg/kg, route intravenous
measured attribute: clearance (mL/min/kg)
Report the figure in mL/min/kg without appending any unit label.

Give a short answer stating reported clearance for `Cc1c(-c2noc(-c3ccc(OC(C)C)c(C#N)c3)n2)ccc2c1CCN(C(CO)CO)C2` .
29
